Target: recombinant OCTN1 (Homo sapiens, UniProt Q9H015)
Construct: made in house; host or cells: E. coli
Sequence (Q9H015 1-551): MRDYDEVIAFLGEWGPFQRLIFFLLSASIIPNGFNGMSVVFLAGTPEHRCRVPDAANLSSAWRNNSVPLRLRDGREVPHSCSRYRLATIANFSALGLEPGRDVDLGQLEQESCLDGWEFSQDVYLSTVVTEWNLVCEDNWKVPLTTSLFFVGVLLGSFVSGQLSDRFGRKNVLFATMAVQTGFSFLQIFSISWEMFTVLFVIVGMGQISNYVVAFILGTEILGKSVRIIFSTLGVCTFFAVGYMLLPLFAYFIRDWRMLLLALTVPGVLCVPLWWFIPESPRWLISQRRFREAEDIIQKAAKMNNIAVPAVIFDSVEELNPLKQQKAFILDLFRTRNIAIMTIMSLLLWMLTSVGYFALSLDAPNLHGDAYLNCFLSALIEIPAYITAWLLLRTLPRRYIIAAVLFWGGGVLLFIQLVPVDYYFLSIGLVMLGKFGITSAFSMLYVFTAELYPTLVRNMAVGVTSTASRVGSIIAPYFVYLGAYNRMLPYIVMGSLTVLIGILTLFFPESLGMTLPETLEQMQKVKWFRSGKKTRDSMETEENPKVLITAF
Assay: [3H]-acetylcholine uptake in proteoliposomes reconstituted with recombinant OCTN1 over-expressed in E. coli
Assay type: biochemical
Details: [3H]-acetylcholine uptake 0.1 mM, 20 min, in the presence of 8.3% CHS
Measured IC50 by item
reportedMetric: IC50 (mM)

# compound, unitAbbreviation, testValue
measured = [
    ("[Na+] [Na^+]", "mM", 2.2),
    ("C[N+]1(C)CCOC(O)(c2ccc(-c3ccc(C4(O)C[N+](C)(C)CCO4)cc3)cc2)C1 (centres unmarked) [hemicholinium]", "mM", 0.3),
]

====

Target: recombinant OCTN1 (Homo sapiens, UniProt Q9H015)
Construct: made in house; host or cells: E. coli
Sequence (Q9H015 1-551): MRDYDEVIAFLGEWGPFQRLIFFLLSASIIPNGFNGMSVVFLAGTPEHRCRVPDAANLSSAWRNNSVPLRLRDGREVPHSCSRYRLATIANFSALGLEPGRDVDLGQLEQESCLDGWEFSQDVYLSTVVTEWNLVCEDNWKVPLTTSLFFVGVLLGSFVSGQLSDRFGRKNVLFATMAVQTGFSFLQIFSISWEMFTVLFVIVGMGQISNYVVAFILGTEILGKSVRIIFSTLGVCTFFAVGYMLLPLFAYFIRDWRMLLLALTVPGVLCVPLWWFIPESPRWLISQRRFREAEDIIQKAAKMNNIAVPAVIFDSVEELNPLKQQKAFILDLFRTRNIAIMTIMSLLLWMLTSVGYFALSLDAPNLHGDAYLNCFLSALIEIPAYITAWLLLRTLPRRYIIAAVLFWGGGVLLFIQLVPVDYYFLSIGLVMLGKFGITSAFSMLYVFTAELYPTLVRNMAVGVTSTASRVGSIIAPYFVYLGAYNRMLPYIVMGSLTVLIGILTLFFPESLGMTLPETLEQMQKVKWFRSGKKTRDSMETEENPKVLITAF
Assay: [14C]-TEA uptake in proteoliposomes reconstituted with recombinant OCTN1 over-expressed in E. coli
Format: biochemical
Settings: [14C]-TEA uptake 0.1 mM, 20 min, in the absence of CHS
Measured IC50 by item
reportedMetric: IC50 (µM)

# compoundStructureString, reportedMetric, unitAbbreviation, testValue
rows = [
    ("[Cl][Hg][Cl]", "IC50", "µM", 270),
    ("CC[N+](CC)(CC)Cc1ccccc1", "IC50", "µM", 1600),
]
